- Test system: MCF-7/DOX cells
- Assay text: MTT anti-proliferative assay, MCF-7/DOX
- Type: cell-based, human
- Stated conditions: Homo sapiens, MCF7-DOX; MTT, 48 h; read-out: MCF-7/DOX IC50 ± SD
pIC50: −log10 of the molar value.
Value type: pIC50

I. O=C(/C=C/c1ccc(Br)cc1)N1CCN(C(=O)C2=Cc3ccc(Br)cc3S2(=O)=O)CC1
II. COc1cccc2c1C(=O)c1c(O)c3c(c(O)c1C2=O)C[C@@](O)(C(=O)CO)C[C@@H]3O[C@H]1C[C@H](N)[C@H](O)[C@H](C)O1 [DOX, doxorubicin, reference compound]
III. O=C(/C=C/c1ccccn1)N1CCN(C(=O)C2=Cc3ccc(Br)cc3S2(=O)=O)CC1
IV. O=C(/C=C/c1ccc(C(F)(F)F)cc1)N1CCN(C(=O)C2=Cc3cc(Br)ccc3S2(=O)=O)CC1
// rank the listed compounds by pIC50, lowest value first Answer by listing the labels in the order asked for.
II, III, I, IV
(II: 4.19, III: 5.35, I: 5.58, IV: 6.06)

1. O=C(/C=C/c1ccccc1O)N1CCN(C(=O)C2=Cc3ccc(Br)cc3S2(=O)=O)CC1
2. COc1ccc(/C=C/C(=O)N2CCN(C(=O)C3=Cc4cc(Br)ccc4S3(=O)=O)CC2)cc1OC
Among 1 and 2 , whose measured pIC50 is the smaller figure? Write the label of whichever entry you select.
1
